- Tested on: DNA gyrase
- ASSAY_NAME: relative enzymatic activity vs untreated control (fraction); higher = less inhibition
- CONDITION_SUMMARY: 100 µM; incubation time: 2 h at 37 C
MEASURE_NAME: relative enzymatic activity
One number for each entry.

Please review the entries below; each comes with its answer.
[
  {
    "MOLECULE": "CO/N=C1\\CN(c2nc3c(cc2F)c(=O)c(C(=O)O)cn3C2CC2)C[C@@H]1CN",
    "MEASURE_NAME": "relative enzymatic activity",
    "RECORDED_VALUE": 0.0916
  },
  {
    "MOLECULE": "COC1C=COC2(C)Oc3c(C)c(O)c4c(O)c(c5c(nc6cc(C)ccn65)c4c3C2=O)NC(=O)C(C)=CC=CC(C)C(O)C(C)C(O)C(C)C(OC(C)=O)C1C (configuration not stated)",
    "MEASURE_NAME": "relative enzymatic activity",
    "RECORDED_VALUE": 0.733
  },
  {
    "MOLECULE": "CN(C)c1cc(CNCC(C)(C)C)c(O)c2c1C[C@H]1C[C@H]3[C@H](N(C)C)C(=O)[C@H](C(N)=O)C(=O)[C@@]3(O)C(=O)[C@@H]1C2=O",
    "MEASURE_NAME": "relative enzymatic activity",
    "RECORDED_VALUE": 0.256
  },
  {
    "MOLECULE": "Cc1cc(O)c(C(=O)NC(C(=O)NC2C(=O)N3C(C(=O)O)=C(CSc4nnnn4C)CSC23)c2ccc(O)cc2)cn1 (configuration not stated)",
    "MEASURE_NAME": "relative enzymatic activity",
    "RECORDED_VALUE": 0.926
  },
  {
    "MOLECULE": "NCC1OC(OC2C(N)CC(N)C(OC3OC(CO)C(O)C(N)C3O)C2O)C(N)CC1O (configuration not stated)",
    "MEASURE_NAME": "relative enzymatic activity",
    "RECORDED_VALUE": 1.2
  }
]

Hi there! I need relative enzymatic activity for each item below, if you can.
1. CCn1cc(C(=O)O)c(=O)c2cc(F)c(N3CCNCC3)cc21
2. CO/N=C(\C(=O)N[C@@H]1C(=O)N2C(C(=O)O)=C(CSc3nnnn3C)CS[C@H]12)c1csc(N)n1
3. CC(N)O.Cc1cc(CC(C)CC(C)(C)C)n(O)c(=O)c1 (configuration not stated)
4. Nc1ncn(C2OC(CO)C(O)C2O)c(=O)n1 (configuration not stated)
5. CN(C)C1C(O)=C(C(N)=O)C(=O)C2(O)C(O)=C3C(=O)c4c(O)cccc4C(C)(O)C3CC12.Cl (configuration not stated)
6. CN(C)c1ccc(O)c2c1C[C@@H]1C[C@@H]3[C@@H](N(C)C)C(=O)C(C(N)=O)=C(O)[C@]3(O)C(=O)[C@H]1C2=O
7. CO[C@@]12[C@@H]3N[C@@H]3CN1C1=C(C(=O)C(N)=C(C)C1=O)[C@@H]2COC(N)=O

Completion:
1: 0.00604; 2: 1.08; 3: 0.964; 4: 0.722; 5: 0.904; 6: 0.00646; 7: 1.25

// batch mode: one relative enzymatic activity value per listed entry
1. NCc1ccccc1CC(=O)NC1C(=O)N2C(C(=O)O)=C(CSc3nnnn3CC(=O)O)CSC12 (configuration not stated)
2. Cc1nnc(SCC2=C(C(=O)[O-])N3C(=O)C(NC(=O)Cn4cnnn4)C3SC2)s1.[Na+] (configuration not stated)
3. C=C1c2cccc(O)c2C(=O)[C@@H]2C(=O)[C@]3(O)C(=O)[C@@H](C(N)=O)C(=O)[C@@H](N(C)C)[C@@H]3[C@@H](O)[C@H]12
4. N[C@@H]1CC[C@@H](c2ccc(Cl)c(Cl)c2)c2ccccc21
5. Oc1ccc(Cl)c2cccnc12

Completion:
1. 1.03
2. 1.26
3. 0.554
4. 0.381
5. 0.354
